Please provide measured EC50 for the entries that follow.
# Tested on: HT29 cells
# TEST: CHK1 Cellular Assay - Gemcitabine EC50 Assay
# Format: cell-based
# RECORDED CONDITIONS: HT29 cells, in the presence of gemcitabine at 10 nM, 72 hours, SRB staining; read-out: CHK1 Cellular Activity (EC50 range)

- INPUT SMILES: "CCN(CC)CC(C)(C)COc1ccc2[nH]c(-c3cc(NC(=O)c4cnn(Cc5ccccc5)c4)c[nH]c3=O)cc2c1"
  ASSAY RESULT: "< 100 nM"
- INPUT SMILES: "CN(C)CC(C)(C)Oc1ccc2[nH]c(-c3cc(NC(=O)c4cnn(Cc5ccccc5)c4)c[nH]c3=O)cc2c1"
  ASSAY RESULT: "< 100 nM"
- INPUT SMILES: "C[C@@H]1CN(Cc2ccc3[nH]c(-c4cc(NC(=O)c5cnn([C@H](C)c6ccccc6)c5)c[nH]c4=O)cc3c2)C[C@H](C)O1"
  ASSAY RESULT: "< 100 nM"
- INPUT SMILES: "CCN(CC)CC1(COc2ccc3[nH]c(-c4cc(NC(=O)c5cnn(Cc6ccccc6)c5)c[nH]c4=O)cc3c2)CC1"
  ASSAY RESULT: "< 100 nM"
- INPUT SMILES: "O=C(Nc1c[nH]c(=O)c(-c2cc3cc(CN4CCCCC4)ccc3[nH]2)c1)c1cnn(Cc2ccccc2)c1"
  ASSAY RESULT: "< 100 nM"

Provide EC50 values for the following items, in order.
1. CCN(Cc1ccc2[nH]c(-c3cc(NC(=O)c4cnn(Cc5ccccc5)c4)c[nH]c3=O)cc2c1)CC(C)(C)CN(C)C
2. O=C(Nc1c[nH]c(=O)c(-c2cc3cc(CN4CCC(F)CC4)ccc3[nH]2)c1)c1cnn(Cc2ccccc2)c1
3. CN(C)CC(C)(C)COc1ccc2[nH]c(-c3cc(NC(=O)c4cnn(Cc5ccccc5)c4)c[nH]c3=O)cc2c1
4. CC(C)(COc1ccc2[nH]c(-c3cc(NC(=O)c4cnn(Cc5ccccc5)c4)c[nH]c3=O)cc2c1)CN1CCCC1
5. C[C@@H]1CN(Cc2ccc3[nH]c(-c4cc(NC(=O)c5cnn(Cc6ccccc6)c5)c[nH]c4=O)cc3c2)C[C@H](C)O1
6. O=C(Nc1c[nH]c(=O)c(-c2cc3ccccc3[nH]2)c1)c1cnn(Cc2ccccc2)c1
7. CC(C)(COc1ccc2[nH]c(-c3cc(NC(=O)c4cnn(Cc5ccccc5)c4)c[nH]c3=O)cc2c1)CN1CCCCC1

["100 to 500 nM", "< 100 nM", "< 100 nM", "< 100 nM", "< 100 nM", "100 to 500 nM", "< 100 nM"]
